Hey, just so you know, these numbers are from patent US20170355757A1.

- measurement target: T1, human C5 R885H-mmh (human, UniProt P01031 19-1676)
- T1 construct: also called human C5 variant R885H
- experiment: SPR, mAb captured via anti-hFc, 25C
endpoint name: koff (s⁻¹)
The reply should be a number in s⁻¹, with the unit left off.

# binder H4H12167P (antibody, human IgG4, V domains shown, Human IgG4 Fc with S108P hinge mutation (H4H)) VH: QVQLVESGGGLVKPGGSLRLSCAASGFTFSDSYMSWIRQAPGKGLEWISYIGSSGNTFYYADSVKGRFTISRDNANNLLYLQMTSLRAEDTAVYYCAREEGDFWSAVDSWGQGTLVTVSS VL: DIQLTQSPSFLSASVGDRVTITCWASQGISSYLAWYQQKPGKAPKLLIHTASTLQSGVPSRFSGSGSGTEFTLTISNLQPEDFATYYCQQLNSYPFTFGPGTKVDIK ; its koff = 0.000298
